Reference source: PubChem BioAssay

Listed here: items and their measured composite z-score.
Test system: PRMT1 (protein arginine N-methyltransferase 1)
method.description: PRMT1 binders on small-molecule microarrays, primary screen, biochemical, small-molecule microarray, 635 nm fluorescence (AID 1088);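 further: binding of Prmt1 protein to compounds spotted on small-molecule microarray slides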
experimental.setup: small-molecule microarray binding, higher = more signal

molecule | composite z-score
COCCOC(=O)N1C(=O)[C@@]2(c3cc(C#Cc4ccc(OC)cc4)ccc31)[C@H](c1ccccc1OCCO)N1[C@H](c3ccccc3)[C@H](c3ccccc3)OC(=O)[C@H]1[C@@H]2C(=O)NC[C@H](O)c1ccccc1 | 1.53
CCOC(=O)C[C@H]1[C@H](OC(=O)c2ccc(C(=O)c3ccccc3)cc2)[C@@H](NC(=O)c2ccccc2)c2cc(OCCCO)ccc2N1C(=O)Cc1ccc(OC)cc1 | 0.355
C=CC[C@]1(C(=O)NCCCOC)N=C(c2ccc(OCCCO)cc2)O[C@H]1c1ccccc1CN=[N+]=[N-] | 1.13
CCCC[C@@H]1C[C@H]1[C@@H](NC(=O)c1ccco1)c1ccccc1C(F)(F)F | -0.191
COC(=O)[C@@]1(Cc2ccc(F)cc2)[C@H]2c3cc(C(=O)N4CCCC4)n(CCCNc4ncc(C(F)(F)F)cc4Cl)c3C[C@H]2CN1C(=O)c1ccccc1 | -0.954
NCCCCCNC(=O)[C@@H]1C[C@@H]2C(=O)N[C@@H](Cc3ccccc3)C(=O)N2[C@@H]1c1ccc(O)cc1 | 1.31
CC(C)C(CO)N1C(=O)[C@@H]2C3C(=O)OCCC/C=C\[C@H]3OC23C=CCN(CCN2CCOCC2)C(=O)[C@@H]13 (some centres not stated) | 0.463
CCCC[C@H]1OB(O)C[C@H]2C1=C(COC)C[C@H]1C(=O)N(C)C(=O)[C@H]12 | -0.15
CCOC(=O)[C@H]1C/C=C/C[C@H](C(=O)OCC)C(=O)O[C@H]2[C@@H](OC)O[C@H](CO)[C@@H](OC(=O)c3c(OC)cccc3OC)[C@@H]2OC1=O | 1.33
C=C(COC)C(=O)CC[C@@H](OC(C)=O)c1ccc(CO)o1 | 1.43
COC(=O)[C@@]1(Cc2ccc(F)cc2)[C@H]2c3cc(C(=O)N4CCCC4)n(Cc4ccc(S(C)(=O)=O)cc4)c3C[C@H]2CN1C(=O)c1ccccc1 | -0.0384
COC(=O)C(CC#Cc1ccc2c(c1)[C@]1(C(=O)N2)[C@H](C(=O)Nc2nc3ccccc3s2)[C@H]2C(=O)O[C@H](c3ccccc3)[C@H](c3ccccc3)N2[C@@H]1c1ccccc1OCCO)C(=O)OC | 1.55
CC(C)[Si]1(C(C)C)O[C@@H](c2ccccc2)c2cc(-c3ccc(-c4ccc(Cl)c(Cl)c4)o3)nc(-c3ccccc3)c21 | 0.985
COc1ccc(C(=O)Nc2ccc(CN3C(=O)[C@]4(O[C@H](CCO)[C@@H]([Si](C)(C)c5ccc(OC)cc5)[C@@H]4C)c4ccccc43)cc2)cc1 | 1.47
O=C1N(Cc2ccccc2)c2ccccc2[C@@H]2OC(c3ccc(OCCCO)cc3)=N[C@]12CCS(=O)(=O)c1ccccc1 | 1.5
CCCC[C@@H]1C[C@H]1[C@@H](NC(=O)C(C)(C)C)c1ccc(C(F)(F)F)cc1 | 0.648
CC1CC/C=C\[C@H]2OC34C=CCN(C(C)(C)C)C(=O)[C@H]3N(C(C)CO)C(=O)[C@@H]4C2C(=O)O1 (some centres not stated) | -0.282

---

method.description: modulators of HCV replicon luciferase signal, primary screen, HCV replication inhibitor project, Huh7 cells, luciferase reporter (AID 1109);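 further: huh7 hepatoma cells harbouring a luciferase neomycin HCV replicon reporter; luciferase luminescence as measure of HCV replicon replication; test concentration not given here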
experimental.setup: 48 h, higher = more signal

smiles.str | z-score
COC(=O)c1c(CC[C@@H](CO)NC(=O)NCCn2cc(C3(O)CCCC3)nn2)oc(C(C)=O)c1C(=O)OC | -0.674
COCCOC(=O)N1C(=O)[C@@]2(c3cc(C#CCC(C(=O)OC)C(=O)OC)ccc31)[C@H](C(=O)N1CCN(c3ncccn3)CC1)[C@H]1C(=O)O[C@H](c3ccccc3)[C@H](c3ccccc3)N1[C@@H]2c1ccccc1OCCO | -1.94
COc1ccc(CCNC(=O)[C@@]2(C)c3ccccc3C(=O)N(C(C)C)[C@H]2c2ccc(CO)cc2)cc1 | -1.3
COCCOC(=O)N1C(=O)[C@@]2(c3cc(C#Cc4ccc(OC)cc4)ccc31)[C@H](c1ccc(O)cc1)N1[C@H](c3ccccc3)[C@H](c3ccccc3)OC(=O)[C@H]1[C@@H]2C(=O)N1CCc2cc(OC)c(OC)cc2C1 | -0.296

---

method.description: E. coli acrAB mutant growth effects, primary screen, E. coli filamentation inducers, strain DRC39, OD650, 48 h (AID 1179);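 further: screen aims at cell division blockers that make cells filament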
experimental.setup: E. coli DRC39 delta-acrAB growth, higher = more signal, called active from +8 up or from −8 down
molecules and their reported z-score

molecule | z-score
CC(CO)N1C(=O)[C@@H]2C3C(=O)OCCC/C=C\[C@H]3OC23C=CCN(C(C)(C)C)C(=O)[C@@H]13 (some centres undefined) | 0.956
CCOC(=O)C[C@H]1[C@H](OC(=O)c2ccc(C(=O)c3ccccc3)cc2)[C@@H](NC(=O)c2ccccc2)c2cc(OCCCO)ccc2N1C(=O)c1ccc2ccccc2n1 | -0.374
O=C(NCCO)C1=C[C@H](Oc2ccccc2I)[C@@H](O)[C@H](N(Cc2ccco2)C(=O)Cc2ccccc2)C1 | -0.666
CCCCN1CC=CC23O[C@@H]4C=CCCOC(=O)C4[C@H]2C(=O)N(CCCCCCO)[C@@H]3C1=O (some centres undefined) | 0.383

---

composite z-score by entry:
method.description: binders of probe aFST on microarray, primary screen, stem cell growth factor project, biochemical, small-molecule microarray, fluorescence 635/667 (AID 1086);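 further: score merges 667 nm fluorescence with signal-to-noise of each printed compound spot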
experimental.setup: higher = more signal

smiles.str | composite z-score
NCCCCCCNC(=O)[C@@H]1C[C@@H]2C(=O)NCC(=O)N2[C@@H]1c1ccc(O)cc1 | 0.703
O=C(c1ccccc1)N1Cc2ccccc2C[C@@]2(COC(c3ccc(OCCCO)cc3)=N2)C1=O | 0.146
[N-]=[N+]=NCc1ccccc1[C@@H]1OC(c2ccc(OCCCO)cc2)=N[C@]1(Cc1ccccc1)C(N)=O | 1.35
CN(C)CCCCCCNC(=O)[C@H]1C[C@H]2C(=O)N[C@@H](CCCCN)C(=O)N2[C@H]1c1cccc(OCCO)c1 | 3.58

---

method.description: E. coli growth modulation, two-sided OD650, primary screen, E. coli filamentation project, strain DRC41, 24 h (AID 1093);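 further: MC1000 strain lacking acrAB efflux and sulA so SOS filamentation is blocked; test concentration not given here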
experimental.setup: OD650, 24 h, higher = more signal, called active from +8 up or from −8 down
Property: z-score; scope: individual compounds

smiles.str | z-score
COCCCNC(=O)[C@@H]1c2ccccc2C(=O)N(Cc2ccccc2Cl)[C@H]1c1ccc(CO)cc1 | 2.55
COc1ccc(/C=C/C=O)cc1 | 0.0062
CCCC=C(CCC)[C@@H](NC(=O)c1cccs1)c1ccc(C(F)(F)F)cc1 | -0.649

---

method.description: small-molecule binders of probe aInhba, primary screen, biochemical, small-molecule microarray, 635/667 nm fluorescence (AID 1148);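 further: score merges 667nm spot fluorescence with signal-to-noise for antibody binding to printed compounds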
experimental.setup: higher = more signal
Some molecules, each annotated with its measured composite z-score.
measurement.name: composite z-score

molecule | measurement.name | recorded.result
Cc1ccc(S[C@]2(C(=O)O)CC(=O)N(C(C)C)[C@@H]2c2ccc(CO)cc2I)cc1 | composite z-score | 0.516
COCCOC(=O)N1C(=O)[C@@]2(c3cc(C#CCNC(N)=O)ccc31)[C@H](C(=O)N1CCN(c3ncccn3)CC1)[C@H]1C(=O)O[C@H](c3ccccc3)[C@H](c3ccccc3)N1[C@@H]2c1ccc(OCCO)cc1 | composite z-score | 0.0154
CC(C)C(O)C1C=CC2C(=O)N(c3ccccc3)C(=O)C2N1Nc1ccc([N+](=O)[O-])cc1 (stereo not given) | composite z-score | 0.726
C=CCOC(=O)[C@H]1[C@@H]2C(=O)O[C@@H](c3ccccc3)[C@@H](c3ccccc3)N2[C@@H](c2ccc(OCCOC(=O)[C@@H]3C[C@@H]4C(=O)N[C@@H](CC(C)C)C(=O)N4[C@@H]3c3ccc(O)cc3)cc2)[C@]12C(=O)Nc1ccccc12 | composite z-score | 0.0442
C=CCNC(=O)[C@H]1[C@@H]2C(=O)O[C@@H](c3ccccc3)[C@@H](c3ccccc3)N2[C@@H](c2ccccc2OCCO)[C@]12C(=O)Nc1ccc(C#CCC(C(=O)OC)C(=O)OC)cc12 | composite z-score | 0.277

---

method.description: S. cerevisiae RM11-1a growth modifiers, primary screen, strain RM11-1a, OD600, basal, 24 h (AID 1177);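 further: cultures grown under basal conditions with no added stressor; test concentration not given here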
experimental.setup: OD600, 24 h, higher = more signal, called active from +8 up or from −8 down
The threshold is inclusive: z-score of exactly 0.6 counts as true (1); values below receive false (0).

molecule | group.label
CC(C)N1C(=O)c2ccccc2[C@](C)(C(=O)NCCN2CCOCC2)[C@@H]1c1ccc(CO)cc1 | true (1)
[N-]=[N+]=NCc1ccccc1[C@@H]1OC(c2ccc(OCCCO)cc2)=N[C@]1(Cc1ccccc1)C(=O)NCC(O)CO (stereo not given in full) | false (0)
COC(=O)C(CC#Cc1ccc2c(c1)[C@]1(C(=O)N2)[C@H](c2ccc(OCCO)cc2)N2[C@H](c3ccccc3)[C@H](c3ccccc3)OC(=O)[C@H]2[C@@H]1C(=O)N1CCc2cc(OC)c(OC)cc2C1)C(=O)OC | true (1)
COCCOC(=O)N1C(=O)[C@@]2(c3cc(C#Cc4ccc(OC)cc4)ccc31)[C@H](c1ccc(O)cc1)N1[C@H](c3ccccc3)[C@H](c3ccccc3)OC(=O)[C@H]1[C@@H]2C(=O)N1CCc2cc(OC)c(OC)cc2C1 | false (0)
COc1ccc([Si](C)(C)[C@H]2[C@H](CCO)O[C@@]3(C(=O)N(Cc4ccc(N(C=O)c5ccccc5)cc4)c4ccccc43)[C@@H]2C)cc1 | true (1)
COC(=O)[C@@]1(CCS(=O)(=O)c2ccccc2)N=C(c2ccc(OCCCO)cc2)O[C@H]1c1ccccc1CN=[N+]=[N-] | true (1)
COc1ccc(CCNC(=O)[C@@]2(C)c3ccccc3C(=O)N(C(C)C)[C@H]2c2ccc(CO)cc2)cc1 | false (0)
COC(=O)[C@@]1(Cc2ccc(OC)cc2)[C@@H]2C(=CC(=O)[C@H]2CC(=O)C(=O)N2CCCC2)CN1C(=O)c1ccccc1 | false (0)
COCCOC(=O)N1C(=O)[C@@]2(c3cc(C#CC4(O)CCCCCC4)ccc31)[C@H](c1ccc(OCCO)cc1)N1[C@H](c3ccccc3)[C@H](c3ccccc3)OC(=O)[C@H]1[C@@H]2C(=O)N1CCN(c2ncccn2)CC1 | true (1)
COCCOC(=O)N1C(=O)[C@@]2(c3ccccc31)[C@H](c1ccc(O)cc1)N1[C@H](c3ccccc3)[C@H](c3ccccc3)OC(=O)[C@H]1[C@@H]2C(=O)Nc1nc2ccccc2s1 | true (1)
